Cited source: patent US20250074871A1

For each of the compounds below, state its half-life.
- assayInfo: plasma and brain PK predicted in humans
- cond: plasma; Human (predicted); read-out: T1/2 Vz (converted)
State the value with its unit after it.

# half-life of CSc1ccccc1CNCCc1ccc(C#N)cc1O = 2 h

So, COc1cc(C(F)(F)F)ccc1CCNCc1ccccc1O ? Its half-life was 1.95 h

---

- assayInfo: in vitro hepatocyte clearance, human
- Assay type: in vitro ADME
- cond: Human hepatocytes; read-out: In vitro T1/2
Kindly state half-life for each of the entries shown.

// field: half-life; key: CSc1ccccc1CNCCc1ccc(C#N)cc1O ; value = 2.28 min

Entry COc1cc(C(F)(F)F)ccc1CCNCc1ccccc1O , half-life reported as 25.3 min
